# Method: Food-effect and regimen pharmacokinetics, single 3-g daily ATQ dose (Example 5 Part 1)
# Type: in vivo, human
# Study Conditions: male, human, plasma, oral, 3 g, 3-g TID, standard meal, baseline-adjusted, mean, N = 6
# Experimental: The study was conducted in 2 parts. Part 1 was conducted in healthy male subjects only while Part 2 was conducted in healthy male and female subjects. The intent of this study part was to optimize the dosage regimen and diet for the multiple-dose safety and tolerance Part 2 of the study. All plasma ATQ concentrations were determined using a GLP validated bioanalytical method. ATQ was administered as an oral solution in oil (0.49 g/mL). The placebo solution consisted of olive oil alone. […]
Recorded Endpoint: AUC(0-inf) (µg·h/mL)
Give the number; µg·h/mL is assumed, so skip it.

Q. Answer with reported AUC(0-inf) of CC1=C(C)C(=O)C(CC[C@](C)(O)CCC[C@H](C)CCC[C@H](C)CCCC(C)C)=C(C)C1=O [ATQ, alpha-tocopherolquinone]
A. 169
